Provenance of the data: ChEMBL document CHEMBL3124843

Tested on: Escherichia coli
protocol summary: Antibacterial activity against Escherichia coli CCM 3954 after 24 hrs
Assay type: functional, organism-based
Active and inactive are the calls of the source. No rule for the calls is given here.
measurement name: Activity

[[record]]
sample_smiles = "CSc1ncnc2c1c(-c1cc3ccccc3o1)cn2[C@@H]1O[C@H](CO)[C@@H](O)[C@H]1O"
readout_value = "inactive"

[[record]]
sample_smiles = "Cc1ncnc2c1c(-c1cccs1)cn2[C@@H]1O[C@H](CO)[C@@H](O)[C@H]1O"
readout_value = "inactive"

[[record]]
sample_smiles = "O=c1[nH]cnc2c1c(-c1ccccc1)cn2[C@@H]1O[C@H](CO)[C@@H](O)[C@H]1O"
readout_value = "inactive"

[[record]]
sample_smiles = "O=c1[nH]cnc2c1c(-c1cc3ccccc3o1)cn2[C@@H]1O[C@H](CO)[C@@H](O)[C@H]1O"
readout_value = "inactive"

[[record]]
sample_smiles = "CN(C)c1ncnc2c1ccn2[C@@H]1O[C@H](CO)[C@@H](O)[C@H]1O"
readout_value = "inactive"

